Data provenance: patent US10736883B2

target: UniProt P35414; assay: [35S]GTPγS binding assay on membranes from CHO cells stably expressing human APJ receptor; settings: membranes of CHO cells stably expressing human APJ receptor, means of several independent experiments, read-out: Activity hAPJ SPA EC50 IP
Sequence (P35414 whole entry): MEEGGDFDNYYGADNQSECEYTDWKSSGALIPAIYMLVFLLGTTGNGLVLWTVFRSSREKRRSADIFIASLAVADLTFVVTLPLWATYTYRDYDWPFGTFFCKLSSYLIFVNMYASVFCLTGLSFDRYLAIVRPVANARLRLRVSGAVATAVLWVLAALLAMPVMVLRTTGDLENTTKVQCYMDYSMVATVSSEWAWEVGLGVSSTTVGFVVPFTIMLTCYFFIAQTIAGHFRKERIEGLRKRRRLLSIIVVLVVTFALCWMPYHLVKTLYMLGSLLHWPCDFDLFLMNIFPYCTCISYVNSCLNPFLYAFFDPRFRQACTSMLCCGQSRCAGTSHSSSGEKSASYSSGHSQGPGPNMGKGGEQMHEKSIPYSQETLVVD
pEC50: −log10 of the molar value.
measuredParameter: pEC50

compound	measurementTarget	pEC50
COc1cccc(OC)c1-n1c(NS(=O)(=O)[C@H](C)Cc2cnc(C)cn2)nnc1-c1ccco1 (single isomer, unassigned) [Example 32.0]	UniProt P35414	8.64
COc1cccc(OC)c1-n1c(NS(=O)(=O)[C@@H](C)Cc2cnc(C)cn2)nnc1-c1ccc(C)o1 (single isomer, unassigned) [Example 38.0]	UniProt P35414	8.42
COc1cccc(OC)c1-n1c(NS(=O)(=O)[C@H]2C[C@@H](O)CN(c3cncc(C#N)c3)C2)nnc1-c1ccc(C)o1 (single isomer, unassigned) [Example 325.0]	UniProt P35414	9.64
COc1cccc(OC)c1-n1c(NS(=O)(=O)[C@@H](C)Cc2ncc(Cl)cc2C#N)nnc1-c1ccco1 (mixture of isomers) [Example 18.0]	UniProt P35414	9.55

1 = COc1cccc(OC)c1-n1c(NS(=O)(=O)[C@H](C)Cc2ccc(C)nn2)nnc1-c1ccco1 (single isomer, unassigned) [Example 42.0]
2 = COc1cccc(OC)c1-n1c(NS(=O)(=O)[C@@H](C)Cc2ncc(C)cn2)nnc1-c1ccc(C)o1 (single isomer, unassigned) [Example 16.0]
Problem: Higher pEC50 between 1 and 2 ? Your choice should be expressed through its label.
Solution: 2
